These data points were gathered from patent US9993000B2.

Entries and their MIC
Tested on: Candida albicans
protocol: Minimum Inhibitory Concentration (MIC) according to DIN 58 940
Assay type: cell-based

Worked cases, answers included:
In [3]: df
Out[3]:
                                   compound        value
0  CCCCCCCCOC1COC2C(OCCCCCCCC)COC12 (centres unmarked) [Comperative compound (1), reference compound]  >10,000 ppm
1  CCCCCCCCCCCCOC1COC2C(O)COC12 (centres unmarked) [Compound (2)]      ≤20 ppm
2  CCCCCCCCC(O)COC1COC2C(O)COC12 (centres unmarked) [Compound (3)]     ≤100 ppm
3  CCCCCCCCOC1COC2C(O)COC12 (centres unmarked) [Compound (1)]      <50 ppm

The record that follows has no MIC shown yet.
[in] Could you please provide reported MIC for CCCCCCCCCCC(O)COC1COC2C(O)COC12 (centres unmarked) [Compound (4)] ? Thanks!
[out] ≤20 ppm
